molecules and their reported weed control effect, Rorippa indica (level)
Test system: Monocotyledonous and dicotyledonous weed
Assay: Post-emergence test experiment, weed control effect (Table 2)
Assay type: in vivo
Design: key: Level 10: completely dead; Level 9: above 90% growth inhibition rate; Level 8: above 80% growth inhibition rate; Level 7: above 70% growth inhibition rate; Level 6: above 60% growth inhibition rate; Level 5: above 50% growth inhibition rate; Level 4: above 30% growth inhibition rate; Level 3: above 20% growth inhibition rate; Level 2: above 10% growth inhibition rate; Level 1: above 1-10% growth inhibition rate; Level 0: no effect
Experimental conditions: 120 g/ha, 3 weeks after spraying, greenhouse
Recorded metric: weed control effect, Rorippa indica (level)

Molecule	Reported measurement
Cn1cc(C(=O)Oc2c(C(=O)c3ccc(S(C)(=O)=O)c(Cn4cc(Cl)cn4)c3Cl)c(C3CC3)nn2C)cn1 [Compound 18]	10
Cc1cc(C)n(Cc2c(S(C)(=O)=O)ccc(C(=O)c3c(C)nn(C)c3OC(=O)c3cn(C)nc3C)c2Cl)n1 [Compound 03]	0

###

The following compounds are listed with their measured effect on crop, rice (level) values.
System: main crop (wheat, corn, rice, soybean, cotton, oilseed, millet and sorghum)
Assay: Post-emergence test experiment, main crops (Table 2)
Type: in vivo
Set-up: key: Level 10: completely dead; Level 9: above 90% growth inhibition rate; Level 8: above 80% growth inhibition rate; Level 7: above 70% growth inhibition rate; Level 6: above 60% growth inhibition rate; Level 5: above 50% growth inhibition rate; Level 4: above 30% growth inhibition rate; Level 3: above 20% growth inhibition rate; Level 2: above 10% growth inhibition rate; Level 1: above 1-10% growth inhibition rate; Level 0: no effect
Experimental conditions: 120 g/ha, 3 weeks after spraying, greenhouse
Recorded metric: effect on crop, rice (level)

Compound	Recorded metric	Reported measurement
Cc1ccn(Cc2c(S(C)(=O)=O)ccc(C(=O)c3c(C4CC4)nn(C)c3OC(=O)c3cnn(C)c3)c2Cl)n1 [Compound 21]	effect on crop, rice (level)	0
Cc1cc(C)n(Cc2c(S(C)(=O)=O)ccc(C(=O)c3c(C)nn(C)c3OC(=O)c3cnn(C)c3)c2C)n1 [Compound 79]	effect on crop, rice (level)	0
CCc1nn(C)c(OC(=O)c2cn(C)nc2C)c1C(=O)c1ccc(S(C)(=O)=O)c(Cn2nc(C)cc2C)c1Cl [Compound 30]	effect on crop, rice (level)	0
Cc1cc(C)n(Cc2c(S(C)(=O)=O)ccc(C(=O)c3c(C)nn(C)c3OC(=O)c3cn(C)nc3C)c2Cl)n1 [Compound 03]	effect on crop, rice (level)	0
Cc1cnn(Cc2c(S(C)(=O)=O)ccc(C(=O)c3c(C4CC4)nn(C)c3OC(=O)c3cnn(C)c3)c2Cl)c1 [Compound 22]	effect on crop, rice (level)	0
Cc1cnn(Cc2c(S(C)(=O)=O)ccc(C(=O)c3c(C)nn(C)c3OC(=O)c3cnn(C)c3)c2Cl)c1 [Compound 14]	effect on crop, rice (level)	0
CCOc1c(C(=O)Oc2c(C(=O)c3ccc(S(C)(=O)=O)c(Cn4cc(C)cn4)c3Cl)cnn2C)cnn1C [Compound 23]	effect on crop, rice (level)	0
Cc1cc(C)n(Cc2c(S(C)(=O)=O)ccc(C(=O)c3c(C)nn(C(C)C)c3OC(=O)c3nn(C)cc3Cl)c2Cl)n1 [Compound 103]	effect on crop, rice (level)	0
CCn1nc(C2CC2)c(C(=O)c2ccc(S(C)(=O)=O)c(Cn3cc(Cl)cn3)c2C)c1OC(=O)c1cn(C)nc1C [Compound 84]	effect on crop, rice (level)	0
CCOc1c(C(=O)Oc2c(C(=O)c3ccc(S(C)(=O)=O)c(Cn4nc(C)cc4C)c3Cl)cnn2CC)cnn1C [Compound 93]	effect on crop, rice (level)	0
Cc1cnn(Cc2c(S(C)(=O)=O)ccc(C(=O)c3c(C4CC4)nn(C)c3OC(=O)c3cn(C)nc3C)c2Cl)c1 [Compound 12]	effect on crop, rice (level)	0
CCOc1c(C(=O)Oc2c(C(=O)c3ccc(S(C)(=O)=O)c(Cn4cc(C)cn4)c3C)c(C3CC3)nn2C)cnn1C [Compound 81]	effect on crop, rice (level)	0
Cc1cnn(Cc2c(S(C)(=O)=O)ccc(C(=O)c3cnn(C)c3OC(=O)c3cn(C)nc3C)c2Cl)c1 [Compound 07]	effect on crop, rice (level)	0
Cc1cnn(Cc2c(S(C)(=O)=O)ccc(C(=O)c3cnn(C(C)C)c3OC(=O)c3cn(C)nc3C)c2Cl)c1 [Compound 97]	effect on crop, rice (level)	0
Cc1cnn(Cc2c(S(C)(=O)=O)ccc(C(=O)c3c(C)nn(C)c3OC(=O)c3cn(C)nc3C)c2Cl)c1 [Compound 04]	effect on crop, rice (level)	0
CCOc1c(C(=O)Oc2c(C(=O)c3ccc(S(C)(=O)=O)c(Cn4cc(Cl)cn4)c3C)c(C)nn2CC)cnn1C [Compound 82]	effect on crop, rice (level)	0
CCn1nc(C2CC2)c(C(=O)c2ccc(S(C)(=O)=O)c(Cn3cc(C)cn3)c2Cl)c1OC(=O)c1cnn(C)c1 [Compound 91]	effect on crop, rice (level)	0
Cc1cc(C)n(Cc2c(S(C)(=O)=O)ccc(C(=O)c3c(C4CC4)nn(C)c3OC(=O)c3cn(C)nc3C)c2Cl)n1 [Compound 11]	effect on crop, rice (level)	0
CCOc1c(C(=O)Oc2c(C(=O)c3ccc(S(C)(=O)=O)c(Cn4ccc(C)n4)c3Cl)cnn2C)cnn1C [Compound 24]	effect on crop, rice (level)	0
CCc1nn(CC)c(OC(=O)c2cn(C)nc2C)c1C(=O)c1ccc(S(C)(=O)=O)c(Cn2nc(C)cc2C)c1Cl [Compound 95]	effect on crop, rice (level)	0
Cc1cnn(Cc2c(S(C)(=O)=O)ccc(C(=O)c3cnn(C)c3OC(=O)c3cnn(C)c3)c2Cl)c1 [Compound 17]	effect on crop, rice (level)	0
Cc1cc(C)n(Cc2c(S(C)(=O)=O)ccc(C(=O)c3c(C4CC4)nn(C)c3OC(=O)c3cnn(C)c3)c2Cl)n1 [Compound 20]	effect on crop, rice (level)	0
CCn1ncc(C(=O)c2ccc(S(C)(=O)=O)c(Cn3cc(C)cn3)c2C)c1OC(=O)c1cnn(C)c1 [Compound 87]	effect on crop, rice (level)	0
